# protocol details: recombinant UMI read abundance after kanamycin selection (control-corrected) (log10(CPM+1)); higher = more efficient recombination; extreme values may be limits of the assay; sequences stand for … in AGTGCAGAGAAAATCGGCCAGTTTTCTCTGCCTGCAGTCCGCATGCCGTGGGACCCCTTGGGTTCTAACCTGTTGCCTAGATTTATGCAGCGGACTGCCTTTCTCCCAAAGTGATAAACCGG…AGGTTGGTTTCACT; site = the 11-nt donor;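 note: IS621 bridge recombinase in Escherichia coli cells against a fixed T5 target plasmid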
Given measured recombinant UMI read abundance (log10), output yes (1) if it is greater than or equal to 1 and no (0) if not.

ATGGAGACATGGACCGGTTTTCCCGGTAATCCGTATTTGGT (site ATGGAGACTAC)	yes (1)
CGGACATCATGGACCGGTTTTCCCGGTAATCCGTATTTGCT (site CGGTCATCTAG)	no (0)
CGGACTTCATGGACCGGTTTTCCCGGTAATCCGTATTTGCT (site CGGACTTCTAG)	yes (1)
GTTGTTCCATGGACCGGTTTTCCCGGTAATCCGTATTTGGC (site GTTGTTCCTTC)	no (0)
CCCTACACATGGACCGGTTTTCCCGGTAATCCGTATTTGTA (site CCCGACACTTA)	no (0)
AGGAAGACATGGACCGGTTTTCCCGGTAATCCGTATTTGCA (site AGGAAGACTTA)	yes (1)

QUERY: Exam item: decide whether the reported recombinant UMI read abundance (log10) for GGGCGCCCATGGACCGGTTTTCCCGGTAATCCGTATTTGGG (site GGGCGCCCTCC) is at least 1.
RESULT: no (0)

QUERY: For this sequence, is measured recombinant UMI read abundance (log10) 1 or higher? CTCTTCTCATGGACCGGTTTTCCCGGTAATCCGTATTTGCT (site CTCTTCTCTAG)
RESULT: yes (1)

QUERY: Say whether GTTCGAACATGGACCGGTTTTCCCGGTAATCCGTATTTGCA (site GTTCGATCTTG) shows recombinant UMI read abundance (log10) of 1 or more.
RESULT: no (0)

QUERY: Decide: is the reported value of recombinant UMI read abundance (log10) for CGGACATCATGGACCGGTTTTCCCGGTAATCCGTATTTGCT (site CGCACATCTAG) equal to or greater than 1?
RESULT: no (0)
